Recorded pIC50 values for a group of compounds are listed next.
tested on: HT-29 colorectal carcinoma; experiment: Cell viability, crystal violet (CV) assay, HT-29; type: cell-based; conditions: Homo sapiens, 72 h, mean ± SD
# pIC50 is unitless: minus log10 of the molar concentration; print number only

compound: CON1CCC(=Cc2cc(C(C)(C)C)c(O)c(C(C)(C)C)c2)C1=O [Compound E-5110]
reported-metric: pIC50
quantitative-result: 4.40

[ask] Fill blank: measured pIC50 of the compound CCN1CC/C(=C\c2cc(C(C)(C)C)c(O)c(C(C)(C)C)c2)S1(=O)=O [Compound S-2474] is ____.
[reply] 4.62

[ask] Fill blank: measured pIC50 of the compound CC(C)(C)c1cc(C=C2CCOC2=O)cc(C(C)(C)C)c1O [KME-4] is ____.
[reply] 4.44

[ask] Fill blank: measured pIC50 of the compound CC(C)(C)c1cc(C(=O)c2cccs2)cc(C(C)(C)C)c1O [Compound R-830, 2,6-di-tert-butyl-4-(2’-thenoyl)phenol] is ____.
[reply] 4.60

// data source = paper PMC10254233
